Values from ChEMBL document CHEMBL1145671

Assay Method Text: Toxicity against brine shrimp assessed as impaired swimming movements after 24 hrs
Assay type: organism-based, Artemia
Particulars: artemia, in vivo
Where a name gives a salt, the structure may show the parent alone.
Reported LC50 at 24 h by item:
Give the value; after it, write the unit.

C[N+](C)(C)CCc1ccc(O)cc1 [CANDICINE CHLORIDE]; 923 µg/mL
CO[C@H](C[N+](C)(C)C)c1ccccc1; 354 µg/mL
O=C1C[C@@H]2OCC=C3CN4CC[C@]56c7ccccc7N1[C@H]5[C@H]2[C@H]3C[C@H]46 [STRYCHNINE SULFATE]; 164 µg/mL
CN1CCC[C@H]1c1cccnc1 [NICOTINE HYDROCHLORIDE]; 158 µg/mL
COC(C[N+](C)(C)C)c1ccccc1 (racemic); 368 µg/mL

Now look at this one.
Form field LC50 at 24 h, entry `COc1ccc(CC[N+](C)(C)C)cc1` : 425 µg/mL
